Cited source: patent US12116371B2

test system: KG-1 cells; test: Long term proliferation assay, Cell Titer-Glo read-out; format: cell-based; settings: Homo sapiens, 264 h, Day 11, Cell Titer-Glo, read-out: Day 11 IC50
pIC50: −log10 of the molar value.
Parameter: pIC50

>>> print(df.to_string())
                                   compound  parameter   val
0  C=CC(=O)NC1CCCN(Cc2ccnc(C(=O)Nc3ccc(-c4cc5c(N6CCOCC6)ncnc5[nH]4)cc3)c2)C1 (centres unmarked)      pIC50  6.57
1  CN(C)C/C=C/C(=O)Nc1ccc(CC(=O)Nc2ccc(-c3cc4c(N5CCOCC5)ncnc4[nH]3)cc2)cc1      pIC50  5.33
